- Target System: mouse 5-HT3 receptor (Mus musculus)
- Construct: host or cells: mouse neuroblastoma cells (N1E-155 as printed)
- Sequence (P23979 24-489): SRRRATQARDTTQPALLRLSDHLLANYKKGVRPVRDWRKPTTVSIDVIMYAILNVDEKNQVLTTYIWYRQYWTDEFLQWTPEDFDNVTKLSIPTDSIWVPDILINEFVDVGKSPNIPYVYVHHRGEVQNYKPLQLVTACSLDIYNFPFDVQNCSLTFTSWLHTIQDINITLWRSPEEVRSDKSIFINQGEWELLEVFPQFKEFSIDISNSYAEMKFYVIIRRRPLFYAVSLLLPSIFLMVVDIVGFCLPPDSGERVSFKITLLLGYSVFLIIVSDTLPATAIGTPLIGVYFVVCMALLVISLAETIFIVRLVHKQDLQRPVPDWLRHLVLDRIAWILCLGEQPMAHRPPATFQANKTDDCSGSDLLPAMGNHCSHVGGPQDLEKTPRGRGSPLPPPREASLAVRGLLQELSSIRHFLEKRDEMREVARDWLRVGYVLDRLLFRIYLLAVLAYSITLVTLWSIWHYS
- Assay Summary: Compound affinity for the mouse 5-HT3 receptor (Assay C), [3H]-GR65630 radioligand binding, Novoscreen
- Settings: Assay C; single concentration 100 nM, in duplicate; [3H]-GR65630; read-out: Mouse % Inhibition @ 100 nM
- Method: Compound Affinity for the Mouse 5-HT3Receptor (Assay C) Compounds were tested by Novoscreen Biosciences Corporation, 7170 Standard Drive, Hanover, Md. in a radioligand binding assay using the mouse 5-HT3 receptor derived from mouse neuroblastoma cells and [^3H]-GR65630 (ligand). […] Radioactivity was assessed using liquid scintillation spectrophotometry after exposure to scintillation cocktail for at least three hours. […] Ki values were then calculated from the Cheng-Prusoff equation. […]
Counter-ions that a name gives are not always drawn.
Collected inhibition at 0.1 µM values appear next to each entry.
State the answer as a number, implicitly in %.

Would you please look over these solved cases?
[[record]]
compound = "CC(C)(C)c1nc2c(C(=O)N[C@@H]3CN4CCC3CC4)cccc2o1"
target_system = "mouse 5-HT3 receptor (Mus musculus)"
assay_result = 94.3

[[record]]
compound = "CN1[C@@H]2CCC[C@H]1C[C@@H](NC(=O)c1cccc3oc(C4CCC4)nc13)C2 [Example 17, Hydrochloride]"
target_system = "mouse 5-HT3 receptor (Mus musculus)"
assay_result = 108

[[record]]
compound = "CN1[C@@H]2CCC[C@H]1C[C@@H](NC(=O)c1cccc3oc(CC4CC4)nc13)C2 [Example 11, Hydrochloride]"
target_system = "mouse 5-HT3 receptor (Mus musculus)"
assay_result = 98.6

[[record]]
compound = "CC1(c2nc3c(C(=O)N[C@@H]4CN5CCC4CC5)cccc3o2)CC1 [Example 8, Hydrochloride]"
target_system = "mouse 5-HT3 receptor (Mus musculus)"
assay_result = 97.6

[[record]]
compound = "CC1CC1c1nc2c(C(=O)NC3CC4CCCC(C3)N4C)cccc2o1 (stereo not shown) [Example 13, Hydrochloride]"
target_system = "mouse 5-HT3 receptor (Mus musculus)"
assay_result = 88.1


Asked: Fill blank: measured inhibition at 0.1 µM of the compound CCN1C2CCCC1CC(NC(=O)c1cccc3oc(C4CC4)nc13)C2 (stereo not shown) [Example 21, Hydrochloride] is ____.
Given back: 34.9

Asked: Fill blank: measured inhibition at 0.1 µM of the compound O=C(N[C@@H]1CN2CCC1CC2)c1cccc2oc(C3CC3)nc12 is ____.
Given back: 87.7

----------
Collected Ki values appear next to each entry.
- Target System: human 5-HT3 receptor (Homo sapiens)
- Sequence (P46098 24-478): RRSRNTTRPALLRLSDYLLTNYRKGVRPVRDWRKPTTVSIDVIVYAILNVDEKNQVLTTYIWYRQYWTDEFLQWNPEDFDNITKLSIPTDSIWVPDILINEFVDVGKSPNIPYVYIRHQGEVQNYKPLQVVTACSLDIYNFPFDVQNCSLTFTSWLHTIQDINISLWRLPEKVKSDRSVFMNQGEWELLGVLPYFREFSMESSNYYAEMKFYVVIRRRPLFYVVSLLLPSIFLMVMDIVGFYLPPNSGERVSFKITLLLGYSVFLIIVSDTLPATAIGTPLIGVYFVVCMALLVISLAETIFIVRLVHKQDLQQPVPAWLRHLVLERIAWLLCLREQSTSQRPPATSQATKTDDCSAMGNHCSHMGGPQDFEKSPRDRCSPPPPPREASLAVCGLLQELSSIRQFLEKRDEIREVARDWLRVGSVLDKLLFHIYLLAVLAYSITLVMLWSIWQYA
- Assay Summary: Compound affinity for the human 5-HT3 receptor (Assay A), [3H]-GR65630 radioligand binding, MDS Pharma
- Set-up: host or cells: N1E-155 cell lines (so in the source)
- Method: Compound Affinity for the Human 5-HT3 Receptor (Assay A) Compounds were tested by MDS Pharma Services—Taiwan Ltd., 158 Li—The Road, Peitou, Taipei, Taiwan 112 R.O.C. […] Radioactivity was assessed using liquid scintillation spectrophotometry after exposure to scintillation cocktail for at least three hours. […] Ki values were then calculated from the Cheng-Prusoff equation. […]
Structures can show the parent of a compound that is named as a salt.
State the answer as a number, implicitly in nM.

[[record]]
compound = "CC1CC1c1nc2c(C(=O)NC3CC4CCCC(C3)N4C)cccc2o1 (centres unmarked) [Example 13, Hydrochloride]"
target_system = "human 5-HT3 receptor (Homo sapiens)"
assay_result = 5.74


Now look at this entry.
Asked: Fill blank: measured Ki of the compound CN1[C@@H]2CCC[C@H]1C[C@@H](NC(=O)c1cccc3oc(C4CCCC4)nc13)C2 [Example 5, Hydrochloride] is ____.
Given back: 2.27

----------
- Target System: mouse 5-HT3 receptor (Mus musculus)
- Construct: host or cells: mouse neuroblastoma cells (N1E-155 as printed)
- Assay Summary: Compound affinity for the mouse 5-HT3 receptor (Assay C), [3H]-GR65630 radioligand binding, Novoscreen
- Settings: Assay C; single concentration 100 nM, in duplicate; [3H]-GR65630; read-out: Mouse % Inhibition @ 100 nM
Structures can show the parent of a compound that is named as a salt.
Readout Type: inhibition at 0.1 µM (%)
State the answer as a number, implicitly in %.

Would you please look over these solved cases?
[[record]]
compound = "O=C(N[C@@H]1CN2CCC1CC2)c1cccc2oc(C3CCCC3)nc12 [Example 6, Hydrochloride]"
assay_result = 90.2

[[record]]
compound = "O=C(N[C@@H]1CN2CCC1CC2)c1cccc2oc(C3CCCCC3)nc12 [Example 16, Hydrochloride]"
assay_result = 94.1

[[record]]
compound = "CN1[C@@H]2CCC[C@H]1C[C@@H](NC(=O)c1cccc3oc(C4(C)CC4)nc13)C2 [Example 7, Hydrochloride]"
assay_result = 96.7


Now look at this entry.
Asked: Fill blank: measured inhibition at 0.1 µM of the compound O=C(N[C@@H]1CN2CCC1CC2)c1cccc2oc(CC3CC3)nc12 [Example 12, Hydrochloride] is ____.
Given back: 90.6

----------
- Target System: mouse 5-HT3 receptor (Mus musculus, UniProt P23979)
- Construct: host or cells: mouse neuroblastoma cells (N1E-155 as printed)
- Sequence (P23979 24-489): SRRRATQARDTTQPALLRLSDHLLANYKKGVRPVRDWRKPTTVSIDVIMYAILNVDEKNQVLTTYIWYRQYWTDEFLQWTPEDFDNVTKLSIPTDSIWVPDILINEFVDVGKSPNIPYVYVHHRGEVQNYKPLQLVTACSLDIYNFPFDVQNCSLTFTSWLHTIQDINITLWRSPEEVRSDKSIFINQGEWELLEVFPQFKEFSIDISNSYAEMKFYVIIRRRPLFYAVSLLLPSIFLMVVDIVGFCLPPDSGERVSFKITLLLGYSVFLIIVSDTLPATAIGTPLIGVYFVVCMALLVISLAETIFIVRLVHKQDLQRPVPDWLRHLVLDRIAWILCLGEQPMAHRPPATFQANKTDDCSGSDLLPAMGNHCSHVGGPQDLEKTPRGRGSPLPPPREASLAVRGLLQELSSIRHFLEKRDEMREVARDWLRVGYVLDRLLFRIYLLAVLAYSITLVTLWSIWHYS
- Assay Summary: Compound affinity for the mouse 5-HT3 receptor (Assay C), [3H]-GR65630 radioligand binding, Novoscreen
- Settings: Assay C; single concentration 100 nM, in duplicate; [3H]-GR65630; read-out: Mouse % Inhibition @ 100 nM
- Description: Compound Affinity for the Mouse 5-HT3Receptor (Assay C) Compounds were tested by Novoscreen Biosciences Corporation, 7170 Standard Drive, Hanover, Md. in a radioligand binding assay using the mouse 5-HT3 receptor derived from mouse neuroblastoma cells and [^3H]-GR65630 (ligand). […] Radioactivity was assessed using liquid scintillation spectrophotometry after exposure to scintillation cocktail for at least three hours. […] Ki values were then calculated from the Cheng-Prusoff equation. […]
Where a name gives a salt, the structure may show the parent alone.
Collected inhibition at 0.1 µM values appear next to each entry.
State the answer as a number, implicitly in %.

Would you please look over these solved cases?
[[record]]
compound = "CN1[C@@H]2CCC[C@H]1C[C@@H](NC(=O)c1cccc3oc(Cc4ccccc4)nc13)C2 [Example 9, Hydrochloride]"
units_label = "%"
assay_result = 94.7

[[record]]
compound = "O=C(N[C@@H]1CN2CCC1CC2)c1cccc2oc(C3CCC3)nc12 [Example 18, Hydrochloride]"
units_label = "%"
assay_result = 108


Asked: Fill blank: measured inhibition at 0.1 µM of the compound CN1[C@@H]2CCC[C@H]1C[C@@H](NC(=O)c1cccc3oc(C4CC4)nc13)C2 [Example 1] is ____.
Given back: 96.1

Asked: Fill blank: measured inhibition at 0.1 µM of the compound CN1[C@@H]2CCC[C@H]1C[C@@H](NC(=O)c1cccc3oc(C(C)(C)C)nc13)C2 [Example 3] is ____.
Given back: 104

Asked: Fill blank: measured inhibition at 0.1 µM of the compound Cc1nc2c(C(=O)N[C@H]3C[C@H]4CCC[C@@H](C3)N4C)cccc2o1 [Example 34] is ____.
Given back: 79

Asked: Fill blank: measured inhibition at 0.1 µM of the compound Cc1nc2c(C(=O)N[C@@H]3CN4CCC3CC4)cccc2o1 [Example 35] is ____.
Given back: 83

Asked: Fill blank: measured inhibition at 0.1 µM of the compound CN1C2CCCC1CC(NC(=O)c1cccc3oc(C4CCCCC4)nc13)C2 (centres unmarked) [Example 15, Hydrochloride] is ____.
Given back: 105

Asked: Fill blank: measured inhibition at 0.1 µM of the compound CN1[C@@H]2CCC[C@H]1C[C@@H](NC(=O)c1cccc3oc(C4CCCC4)nc13)C2 [Example 5, Hydrochloride] is ____.
Given back: 96.2
